Target: T1, human VEGF (hVEGF) (human, UniProt P15692 181-395)
T1 construct: also called VEGF-A
T1 sequence: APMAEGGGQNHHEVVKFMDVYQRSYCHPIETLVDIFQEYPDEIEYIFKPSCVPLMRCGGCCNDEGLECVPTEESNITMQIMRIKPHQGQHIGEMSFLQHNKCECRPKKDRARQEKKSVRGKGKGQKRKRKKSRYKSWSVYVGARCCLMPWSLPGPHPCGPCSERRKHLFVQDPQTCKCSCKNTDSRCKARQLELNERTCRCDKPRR
Test: SPR single-cycle;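 also: fab variants injected over hVEGF immobilized on a CM5 chip (Biacore T200), threefold dilution series from 0.02 to 50 nM, kinetics fitted with a 1:1 Langmuir model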
Listing of entries alongside the reported kon.
Quantity Name: kon (M⁻¹ s⁻¹)

1) G6.31 LC-T31R (Fab, V domains shown, Fab) VH: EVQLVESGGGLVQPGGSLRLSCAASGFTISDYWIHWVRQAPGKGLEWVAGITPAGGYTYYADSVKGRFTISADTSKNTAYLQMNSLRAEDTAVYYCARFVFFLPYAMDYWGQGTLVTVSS VL: DIQMTQSPSSLSASVGDRVTITCRASQDVSRAVAWYQQKPGKAPKLLIYSASFLYSGVPSRFSGSGSGTDFTLTISSLQPEDFATYYCQQGYGNPFTFGQGTKVEIK: 271000
2) G6.31 HC-K64E (Fab, name in Kabat numbering, V domains shown, Fab) VH: EVQLVESGGGLVQPGGSLRLSCAASGFTISDYWIHWVRQAPGKGLEWVAGITPAGGYTYYADSVEGRFTISADTSKNTAYLQMNSLRAEDTAVYYCARFVFFLPYAMDYWGQGTLVTVSS VL: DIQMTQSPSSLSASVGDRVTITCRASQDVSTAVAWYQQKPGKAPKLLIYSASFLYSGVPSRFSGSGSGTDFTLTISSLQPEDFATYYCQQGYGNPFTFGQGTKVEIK: 552000

The origin of these recorded values is patent US20210115124A1.
